Origin of values: PubChem BioAssay (NCI)

Assignment: determine reported growth for the given molecules.
Test system: MDA-MB-468 breast
Assay: NCI-60 one-dose screen, 48 h (100 = growth as untreated, 0 = no growth, -100 = all killed)
Conditions: 10 µM unless noted
This is part of a sample that, as a whole, favours compounds with a hit. Of some 83,000 tested, about 20% had one in any assay. The source made the active and inactive calls. The calls were made as follows: active = growth percent below 10; inactive = the rest.

Fill blank: measured growth of the molecule "CSc1nnc(-c2sc3nnc(-c4ccccc4)c(-c4ccccc4)c3c2O)o1" is ____.
78.9% (inactive)

What do you get for "O=[N+]([O-])c1cccc(N=Nc2ccc(O)cc2O)c1" ?
69.6% (inactive)

What do you get for "CS(=O)(=O)c1ccc(-c2nc3ccccn3c2/C=N/Nc2nc(-c3ccc(Cl)cc3)cs2)cc1" ?
94.2% (inactive)

What do you get for "COc1cc(NC(=O)c2cc(OC)c3ccn(C)c3c2)cc2c1C[C@]1(C)CC[C@@H](O)C(C)(C)[C@H]1O2" ?
69.6% (inactive)

What do you get for "[N-]=[N+]=NCc1ncc(-c2ccc(C(F)(F)F)cc2)c(NC2CCCCCC2)n1" ?
103% [50 µM] (inactive)

----------
System: SR leukemia
Assay: NCI-60 one-dose screen, 48 h
Details: 10 µM
Compounds without any hit were thinned out: in the full panel of roughly 83,000, 20% have a hit. The source made the active and inactive calls. How the source made its calls: active means growth percent below 10; inactive means the rest.
Return exactly one item of true (1) = active, false (0) = inactive

# outcome recorded in this test, key = COc1cc(C2CC(c3ccccc3)=Nc3c(N)nc(N)nc3N2)ccc1Oc1nc(NCCO)nc(N2CCOCC2)n1 (stereo not drawn)
false (0)

What do you get for "Cn1cc(-c2nc(N)nnc2-c2c[nH]c3ccccc23)c2cc(Br)cnc21" ?
true (1)

What do you get for "COc1ccc(-n2c(SCC(=O)NNS(=O)(=O)c3ccccc3)nc3ccc(Cl)cc3c2=O)cc1" ?
false (0)

What do you get for "COc1ccc(Cn2cc(C#N)c(N)c2C(C)=O)c(OC)c1" ?
false (0)

What do you get for "O=C(CSc1nc2ccccc2c(=O)n1-c1ccc(Cl)cc1)Nc1ccc(-c2nc3ccc([N+](=O)[O-])cc3[nH]2)cc1" ?
false (0)

What do you get for "COc1cc(-c2nc3ccc(C)cc3[nH]2)ccc1OCc1nnc(-c2ccccc2Br)o1" ?
false (0)

What do you get for "O=C(Nc1ccc(Oc2ncnc3scc(Nc4n[nH]c(=S)s4)c23)cc1)C1(C(=O)Nc2cccc(C(F)(F)F)c2)CC1" ?
false (0)

What do you get for "COc1cc2oc(-c3cccc(C(=O)Nc4ccc(Cl)cc4)c3)cc(=O)c2c(OCCNC(=O)[C@@H](N)CO)c1OC" ?
true (1)

----------
Assignment: determine reported growth for the given compounds.
Test system: MDA-MB-468 breast
Assay: NCI-60 one-dose screen, 48 h (100 = growth as untreated, 0 = no growth, -100 = all killed)
Conditions: 10 µM unless noted
The panel holds about 83,000 compounds, 20% with a hit somewhere; the sample as a whole holds those more often. The source made the active and inactive calls. Rule for the calls: active = growth percent below 10; inactive = the rest.

Fill blank: measured growth of the compound "O=C(O)c1ccnc(Br)c1" is ____.
91.1% (inactive)

What do you get for COc1cc(C(=O)N2N=C(c3ccc(S(C)(=O)=O)cc3)CC2c2ccco2)cc(OC)c1OC (stereo unspecified) ?
36.7% (inactive)

What do you get for Cc1c(N2CN3C[C@H](C)N4CN(c5c(C)n(C)n(-c6ccccc6)c5=O)CN5C[C@@H](C)N(C2)C3C54)c(=O)n(-c2ccccc2)n1C (stereo partly specified) ?
97.1% (inactive)

What do you get for "Nc1nccc2c1ccn2-c1ccc(NC(=O)Nc2cccc(C(F)(F)F)c2)cc1" ?
72.8% (inactive)

What do you get for "Cc1cc(C(=O)Nc2cc(Nc3ncccc3-c3ncnc4nc[nH]c34)ccc2F)cc(C(C)(C)C#N)c1" ?
87.7% (inactive)

What do you get for "CC(C)CCCC(=O)O" ?
90.8% (inactive)

What do you get for C=C1CC2(OC1=O)C(=O)N(C)c1ccc(I)cc12 (stereo unspecified) ?
-79.2% (active)

What do you get for "COc1ccc(NC(=O)c2sc3nc(C)c(C(=O)CCc4cccc(OC)c4)cc3c2N)cc1" ?
29.6% (inactive)

What do you get for "S=C(S)OCN1CCOCC1" ?
99.1% (inactive)

What do you get for "CCCCCCCCCCCCCCCCCCSC(=N)N" ?
67.8% (inactive)

What do you get for "OCc1ccc(N2CCc3cccc(F)c3C2)cc1Cl" ?
-49.9% [0.1 µM] (active)
